Reference source: patent US11242344B2

Molecular target: VHL Elongin B/C complex (Homo sapiens (Human))
Sequence (P40337 whole entry, looked up): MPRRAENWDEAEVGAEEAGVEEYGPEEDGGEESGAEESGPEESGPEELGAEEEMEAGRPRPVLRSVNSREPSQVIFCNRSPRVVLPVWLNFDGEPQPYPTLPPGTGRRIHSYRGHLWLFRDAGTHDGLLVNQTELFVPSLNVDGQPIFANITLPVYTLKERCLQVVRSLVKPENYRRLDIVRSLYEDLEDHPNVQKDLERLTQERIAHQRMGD
Sequence (Q15370 whole entry partner, looked up): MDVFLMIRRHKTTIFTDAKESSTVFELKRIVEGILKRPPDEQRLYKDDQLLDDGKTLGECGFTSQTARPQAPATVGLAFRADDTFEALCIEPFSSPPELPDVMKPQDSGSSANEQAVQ
Sequence (Q15369 whole entry partner, looked up): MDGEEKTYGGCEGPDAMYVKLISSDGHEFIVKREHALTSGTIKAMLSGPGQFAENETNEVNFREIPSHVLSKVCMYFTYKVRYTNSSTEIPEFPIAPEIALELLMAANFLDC
Assay: Fluorescence Polarization (FP) VHL Binding Assay
Details: VHL binding, FP assay; geometric mean where more than one measurement

compound: Cc1cc(C(C(=O)N2C[C@H](O)CC2C2=NC(=O)C(C)(c3ccc(-c4cccnc4C)cc3)N2)C(C)C)on1 (single isomer, unassigned) [Example 106.1]
IC50: > 400 µM
--
compound: CC(=O)N[C@H](C(=O)N1C[C@H](O)CC1C1=NC(=O)C(C)(c2ccc(Br)cc2)N1)C(C)(C)C (single isomer, unassigned) [Example 101.3]
IC50: > 200 µM
--
compound: Cc1cc([C@H](C(=O)N2C[C@H](O)CC2C2=NOC3(CCCc4ccccc43)N2)C(C)C)on1 (single isomer, unassigned) [Example 131.4]
IC50: 19.9 µM

* * *

Target: UniProt P40337
Assay: Surface Plasmon Resonance Assay
Format: binding
Settings: SPR measured VHL affinity; geometric mean where more than one measurement

compound: Cc1cc(C(C(=O)N2C[C@H](O)CC2C2=NC(=O)C(C)(c3ccc(-c4cccnc4C)cc3)N2)C(C)C)on1 (single isomer, unassigned) [Example 106.1]
measured.on: UniProt P40337
bound.sign: >
Kd, µM: 150
--
compound: Cc1cc([C@@H](C(=O)N2C[C@H](O)C[C@H]2C2=NOC(C)(c3ccccc3)N2)C(C)C)on1 (single isomer, unassigned) [Example 128.1]
measured.on: UniProt P40337
bound.sign: ≥
Kd, µM: 150
--
compound: Cc1ncsc1-c1ccc([C@]2(C)NC(C3C[C@@H](O)CN3C(=O)[C@@H]3CCCN3S(C)(=O)=O)=NC2=O)cc1 (single isomer, unassigned) [Example 112.1]
measured.on: UniProt P40337
bound.sign: =
Kd, µM: 12.1
--
compound: Cc1ncsc1-c1ccc([C@]2(C)NC(C3C[C@@H](O)CN3C(=O)C(c3cnn(C)c3)C(C)C)=NC2=O)cc1 (single isomer, unassigned) [Example 110.4]
measured.on: UniProt P40337
bound.sign: =
Kd, µM: 150
--
compound: Cc1cc([C@@H](C(=O)N2C[C@H](O)C[C@H]2C2=NOC(c3ccccc3)(c3ccccc3)N2)C(C)C)on1 [Example 132.1]
measured.on: UniProt P40337
bound.sign: ≥
Kd, µM: 150
--
compound: Cc1cc(C(C(=O)N2C[C@H](O)CC2C2=NC(=O)C(C)(C)N2)C(C)C)on1 (single isomer, unassigned) [Example 107.4]
measured.on: UniProt P40337
bound.sign: >
Kd, µM: 150
--
compound: Cc1ncsc1-c1ccc([C@]2(C)NC(C3C[C@@H](O)CN3C(=O)C(c3cnn(C)c3)C(C)C)=NC2=O)cc1 (single isomer, unassigned) [Example 110.2]
measured.on: UniProt P40337
bound.sign: =
Kd, µM: 104
--
compound: Cc1ncsc1-c1ccc([C@]2(C)NC(C3C[C@@H](O)CN3C(=O)C(c3cn(C)nn3)C(C)C)=NC2=O)cc1 (single isomer, unassigned) [Example 118.3]
measured.on: UniProt P40337
bound.sign: =
Kd, µM: 21.2
--
compound: Cc1ncsc1-c1ccc([C@]2(C)NC(C3C[C@@H](O)CN3C(=O)C(c3cn(C)nn3)C(C)C)=NC2=O)cc1 (single isomer, unassigned) [Example 118.1]
measured.on: UniProt P40337
bound.sign: =
Kd, µM: 61.5
--
compound: Cc1cc([C@H](C(=O)N2C[C@H](O)C[C@H]2C2=NOC(C)(C)N2)C(C)C)on1 [Example 126.1]
measured.on: UniProt P40337
bound.sign: =
Kd, µM: 12.8
--
compound: Cc1cc(C(C(=O)N2C[C@H](O)CC2C2=NC(=O)C(C)(C)N2)C(C)C)on1 (single isomer, unassigned) [Example 107.2]
measured.on: UniProt P40337
bound.sign: =
Kd, µM: 14.9
--
compound: Cc1ncsc1-c1ccc([C@]2(C)NC(C3C[C@@H](O)CN3C(=O)C(c3cc(O)no3)C(C)C)=NC2=O)cc1 (single isomer, unassigned) [Example 116.4]
measured.on: UniProt P40337
bound.sign: =
Kd, µM: 5.3
